Just for reference, the supplement of paper PMC11451515 is where these values come from.

# System: NOMO1
# METHOD_SUMMARY: cell viability relative to DMSO control; higher = less cytotoxic
# DETAILS: RPMI 5 mM glucose + 10% dialyzed FBS; 48 h; 5.12 µM
Reported values of cell viability for individual entries
EXPERIMENTAL_ENDPOINT: cell viability (%)

COMPOUND	OBS_VALUE
Nc1nc(NCCNc2ncc(-n3ccnc3)c(-c3ccc(Cl)cc3Cl)n2)ccc1[N+](=O)[O-]	168
NC[C@H]1O[C@H](O[C@H]2[C@H](O)[C@@H](O[C@H]3O[C@H](CO)[C@@H](O)[C@H](N)[C@H]3O)[C@H](N)C[C@@H]2N)[C@H](N)C[C@@H]1O	81.7
Clc1ccccc1C(c1ccccc1)(c1ccccc1)n1ccnc1	113
CN(C(Cc1ccc(O[S+](=O)([O-])c2cccc3cnccc23)cc1)C(=O)N1CCN(c2ccccc2)CC1)[S+](=O)([O-])c1cccc2cnccc12 (configuration not stated)	93.8
O=[S+]([O-])(NCCNC/C=C/c1ccc(Br)cc1)c1cccc2cnccc12	89.7
C[N]1C=C(C=N1)C2=CC=C3N=CC\4=C(N(C(=O)\C=C4)C5=CC6=C(CCN6C(=O)C=C)C=C5)C3=C2	47.4
CC[C@H]1CN2CCc3cc(OC)c(OC)cc3[C@@H]2C[C@@H]1C[C@H]1NCCc2cc(OC)c(OC)cc21	14.9
